test system: Clostridium difficile UNT103-1; experiment: Non-cannulated Syrian hamster C. difficile infection model, oral gavage; type: in vivo, Golden Syrian hamsters; details: oral gavage; second value of A/B cell; limit of detection 0.8
Collected Toxin B level at Day-22 values appear next to each entry.
valueKind: Toxin B level at Day-22

compound="C=C1NC(=O)[C@H](Cc2c[nH]c3ccccc23)NC(=O)[C@H](NC(=O)[C@H](CCCCN)NC(=O)[C@@H](N)CC(C)C)CSC[C@@H](C(=O)N[C@H]2C(=O)N3CCC[C@H]3C(=O)NCC(=O)N[C@H](C(=O)N[C@@H](C)C(=O)N[C@@H](CC(N)=O)C(=O)NC(=CC)C(=O)NCC(=O)N[C@@H]3CSC[C@@H]4NC(=O)[C@H](Cc5ccc(O)cc5)NC(=O)[C@@H](CS/C=C\\NC4=O)NC(=O)[C@H](CC(N)=O)NC(=O)[C@H](Cc4ccccc4)NC3=O)CS[C@H]2C)NC(=O)[C@H](CC(C)C)NC1=O [F1L R13N]" obsvalue="2189.1 ng/mL"
compound="CN[C@H](CC(C)C)C(=O)N[C@H]1C(=O)N[C@@H](CC(N)=O)C(=O)N[C@H]2C(=O)N[C@H]3C(=O)N[C@H](C(=O)N[C@H](C(=O)O)c4cc(O)cc(O)c4-c4cc3ccc4O)[C@H](O)c3ccc(c(Cl)c3)Oc3cc2cc(c3O[C@@H]2O[C@H](CO)[C@@H](O)[C@H](O)[C@H]2O[C@H]2C[C@](C)(N)[C@H](O)[C@H](C)O2)Oc2ccc(cc2Cl)[C@H]1O [Vancomycin]" obsvalue="8 ng/mL"
compound="C=C1NC(=O)[C@H](Cc2c[nH]c3ccccc23)NC(=O)[C@H](NC(=O)[C@H](CCCCN)NC(=O)[C@@H](N)[C@@H](C)CC)CSC[C@@H](C(=O)N[C@H]2C(=O)N3CCC[C@H]3C(=O)NCC(=O)N[C@H](C(=O)N[C@@H](C)C(=O)N[C@@H](C)C(=O)NC(=CC)C(=O)NCC(=O)N[C@@H]3CSC[C@@H]4NC(=O)[C@H](Cc5ccc(O)cc5)NC(=O)[C@@H](CS/C=C\\NC4=O)NC(=O)[C@H](CC(N)=O)NC(=O)[C@H](Cc4ccccc4)NC3=O)CS[C@H]2C)NC(=O)[C@H](CC(C)C)NC1=O [F1I R13A]" obsvalue="205.5 ng/mL"
compound="C=C1NC(=O)[C@H](Cc2c[nH]c3ccccc23)NC(=O)[C@H](NC(=O)[C@H](CCCCN)NC(=O)[C@@H](N)[C@@H](C)CC)CSC[C@@H](C(=O)N[C@H]2C(=O)N3CCC[C@H]3C(=O)NCC(=O)N[C@H](C(=O)N[C@@H](C)C(=O)N[C@@H](CC(N)=O)C(=O)NC(=CC)C(=O)NCC(=O)N[C@@H]3CSC[C@@H]4NC(=O)[C@H](Cc5ccc(O)cc5)NC(=O)[C@@H](CS/C=C\\NC4=O)NC(=O)[C@H](CC(N)=O)NC(=O)[C@H](Cc4ccccc4)NC3=O)CS[C@H]2C)NC(=O)[C@H](CC(C)C)NC1=O [F1I R13N]" obsvalue="120.2 ng/mL"

----------
settings: simulated gi fluid, FaSSIF only half-life
valueKind: half-life

compound="C=C1NC(=O)[C@H](Cc2c[nH]c3ccccc23)NC(=O)[C@H](NC(=O)[C@H](CCCCN)NC(=O)[C@@H](N)[C@@H](C)CC)CSC[C@@H](C(=O)N[C@H]2C(=O)N3CCC[C@H]3C(=O)NCC(=O)N[C@H](C(=O)N[C@@H](C)C(=O)N[C@@H](CC(N)=O)C(=O)NC(=CC)C(=O)NCC(=O)N[C@@H]3CSC[C@@H]4NC(=O)[C@H](Cc5ccccc5)NC(=O)[C@@H](CS/C=C\\NC4=O)NC(=O)[C@H](CC(N)=O)NC(=O)[C@H](Cc4ccccc4)NC3=O)CS[C@H]2C)NC(=O)[C@H](CC(C)C)NC1=O [F1I R13N Y20F]" obsvalue="> 12 h"
